Target: human full length PIK3KA Wild-type (p110α/p85α complex) (Homo sapiens)
Construct: Recombinant, catalytically active human full length PIK3KA Wild-type and H1047R mutant were purchased as 1:1 complex; 6xHis (N); purchased EMD Millipore Sigma 14-602M
Assay: PI3K-alpha kinase (PIK3CA) biochemical activity, wild-type, ADP-Glo
Conditions: PI3K-α (PIK3CA) biochemical, Soy PI lipid substrate
Excerpt: PI3K-Alpha Kinase (PIK3CA) Activity, Wild-Type and H1047R Mutant and Determining IC50 Values for Inhibitors Recombinant, catalytically active human full length PIK3KA Wild-type and H1047R mutant were purchased as 1:1 complex of N-terminal 6× his tagged p110α (catalytic) and untagged p85α (regulatory subunit) from EMD Millipore Sigma (cat. no. 14-602M and 14-792M, respectively). […]
pIC50: −log10 of the molar value.
readout-type: pIC50

Q: Find the measured pIC50 of `Cc1cc([C@@H](C)Nc2ccc(C(F)(F)F)nc2C(=O)O)c2oc(-c3ccccc3)cc(=O)c2c1` with human full length PIK3KA Wild-type (p110α/p85α complex) (Homo sapiens) as test system.
Ans: 5.30 to 6.00

Q: Find the measured pIC50 of `Cc1cc([C@@H](C)Nc2ccccc2C(=O)O)c2oc(-c3ccc(C#N)cc3)c(C)c(=O)c2c1` with human full length PIK3KA Wild-type (p110α/p85α complex) (Homo sapiens) as test system.
Ans: 5.30 to 6.00

Q: Find the measured pIC50 of `Cc1cc([C@@H](C)Nc2ccccc2C(=O)O)c2oc(-c3ccccc3C)cc(=O)c2c1` with human full length PIK3KA Wild-type (p110α/p85α complex) (Homo sapiens) as test system.
Ans: < 5.00

Q: Find the measured pIC50 of Cc1cc(C(C)Nc2ccccc2C(=O)O)c2oc(-c3ccc(N4CCCC4)cc3)cc(=O)c2c1 (stereo not shown) [Example 45] with human full length PIK3KA Wild-type (p110α/p85α complex) (Homo sapiens) as test system.
Ans: < 5.00

Q: Find the measured pIC50 of `Cc1cc([C@@H](C)Nc2ccc(C)c(F)c2C(=O)O)c2oc(-c3ccccc3)c(C)c(=O)c2c1` with human full length PIK3KA Wild-type (p110α/p85α complex) (Homo sapiens) as test system.
Ans: 5.30 to 6.00

Q: Find the measured pIC50 of `Cc1cc([C@@H](C)Nc2ccccc2C(=O)O)c2oc(-c3ccc(F)c(F)c3)c(C)c(=O)c2c1` with human full length PIK3KA Wild-type (p110α/p85α complex) (Homo sapiens) as test system.
Ans: 5.30 to 6.00

Q: Find the measured pIC50 of `Cc1cc([C@@H](C)Nc2cccnc2C(=O)O)c2oc(-c3cccc(C#N)c3)c(C)c(=O)c2c1` with human full length PIK3KA Wild-type (p110α/p85α complex) (Homo sapiens) as test system.
Ans: 5.00 to 5.30
